- test.protocol: Inhibition of human beta-secretase
quantity: pIC50
# pIC50: negative log10 of molar concentration; output just the value

Identify the reported pIC50 for the following entry. C=C1c2[nH]c3ccc(OC)cc3c2C2[C@@H](CC)C1CCN2C (stereo partly specified)
3.74

###

- test.protocol: Toxicity in Artemia salina assessed as mortality measured after 24 hrs by microscopic analysis
- assay.setup: read-out: Activity
quantity: mortality at 24 h (%)
Form entry: value (%) — number only.

Identify the reported mortality at 24 h for the following entry. `COc1cc([C@H]2Oc3ccc4[nH]cc5c4c3[C@@H]2C(=O)NCC5)ccc1O`
90

###

- test.system: Xanthine dehydrogenase/oxidase (Homo sapiens)
- Sequence (P47989 whole entry): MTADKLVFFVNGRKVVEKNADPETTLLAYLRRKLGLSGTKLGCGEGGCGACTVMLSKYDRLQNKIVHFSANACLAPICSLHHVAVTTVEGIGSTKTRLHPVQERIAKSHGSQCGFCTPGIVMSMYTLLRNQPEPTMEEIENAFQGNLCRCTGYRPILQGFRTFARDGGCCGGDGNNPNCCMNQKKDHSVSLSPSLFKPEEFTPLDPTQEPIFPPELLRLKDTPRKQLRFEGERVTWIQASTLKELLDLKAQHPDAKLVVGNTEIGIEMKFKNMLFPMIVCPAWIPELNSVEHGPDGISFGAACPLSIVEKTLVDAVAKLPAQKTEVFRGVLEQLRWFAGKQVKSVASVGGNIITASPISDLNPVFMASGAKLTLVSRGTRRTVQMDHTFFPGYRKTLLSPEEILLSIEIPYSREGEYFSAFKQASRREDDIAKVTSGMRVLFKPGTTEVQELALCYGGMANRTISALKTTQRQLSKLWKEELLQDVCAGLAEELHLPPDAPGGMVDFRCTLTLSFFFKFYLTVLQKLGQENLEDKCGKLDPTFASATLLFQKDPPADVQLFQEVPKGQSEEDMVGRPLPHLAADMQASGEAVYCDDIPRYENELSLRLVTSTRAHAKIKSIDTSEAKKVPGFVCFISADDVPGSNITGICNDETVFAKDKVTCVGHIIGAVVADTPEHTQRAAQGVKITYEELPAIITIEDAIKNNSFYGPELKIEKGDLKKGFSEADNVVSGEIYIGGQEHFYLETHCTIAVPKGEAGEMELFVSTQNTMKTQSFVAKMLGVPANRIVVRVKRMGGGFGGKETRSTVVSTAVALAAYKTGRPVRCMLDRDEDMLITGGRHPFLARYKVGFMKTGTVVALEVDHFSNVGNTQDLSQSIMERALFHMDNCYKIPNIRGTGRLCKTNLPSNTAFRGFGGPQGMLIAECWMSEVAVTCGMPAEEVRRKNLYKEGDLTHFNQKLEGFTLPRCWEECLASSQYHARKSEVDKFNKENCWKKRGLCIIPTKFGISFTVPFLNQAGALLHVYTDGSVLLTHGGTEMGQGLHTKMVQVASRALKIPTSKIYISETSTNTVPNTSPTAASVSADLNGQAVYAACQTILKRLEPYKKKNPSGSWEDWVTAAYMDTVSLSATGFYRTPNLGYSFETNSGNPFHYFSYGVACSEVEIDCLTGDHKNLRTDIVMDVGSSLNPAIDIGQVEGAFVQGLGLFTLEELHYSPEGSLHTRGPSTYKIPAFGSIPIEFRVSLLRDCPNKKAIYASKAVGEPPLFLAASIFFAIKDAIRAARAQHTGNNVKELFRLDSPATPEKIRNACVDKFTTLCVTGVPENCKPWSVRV
- test.protocol: Inhibition of xanthine oxidase (unknown origin) at 10 uM using xanthine as substrate
quantity: IC50 (nM)
Form entry: value (nM) — number only.

Identify the reported IC50 for the following entry. C=C1c2[nH]c3ccccc3c2CN2CC[C@H]1/C(=C\C)C2 [APPARICINE]
650
